Catalogue of compounds with associated EC50
# System: Microfilaria of Dirofilaria immitis
# test_description: Motility of Dirofilaria immitis microfilariae in microtiter plate, 3 days, dose response
# Assay type: cell-based
# test_parameters: 72 h, read-out: EC50, motility of D. immitis microfilaria, three days at 37° C., 5% CO2, vs DMSO control

These recorded examples may help you get a feel for the data.
{"compound": "Cc1cc2c(C(C)(C)C)c(C(=O)N[C@H]3CCOc4ccccc43)cnn2c1-c1cc(Cl)cc(Cl)c1 [Compound A464]", "EC50": "< 0.01 µM"}
{"compound": "O=C(N[C@H]1CCOc2ccccc21)c1cnn2c(-c3cc(Cl)cc(Cl)c3Cl)c(Cl)cc2c1N1CC(F)(F)C1 [Compound A506]", "EC50": "< 0.01 µM"}
{"compound": "CC1(C)CN(c2c(C(=O)N[C@H]3CCOc4ccccc43)cnn3c(-c4cc(F)cc(Cl)c4Cl)c(Cl)cc23)C1 [Compound A567]", "EC50": "1 to 10 µM"}
{"compound": "Cc1cc2c(C(C)(C)C)c(C(=O)N[C@@H]3CCc4sc(Br)nc43)cnn2c1-c1cc(F)cc(Cl)c1Cl [Compound A536b]", "EC50": "1 to 10 µM"}
{"compound": "Cc1cc2c(C(C)(C)C)c(C(=O)N[C@H]3CCOc4ccccc43)cnn2c1-c1cc(F)cc(F)c1F [Compound A471]", "EC50": "< 0.01 µM"}

Task: Could you tell me which EC50 is on file for CC(C)c1c(C(=O)N[C@H]2CCOc3ccccc32)cnn2c(-c3cc(Cl)cc(Cl)c3)cc(C(F)(F)F)c12 [Compound A468] ?
Result: 1 to 10 µM

Task: Could you tell me which EC50 is on file for Cc1cc2c(C(C)(C)C)c(C(=O)N[C@H]3CCCc4cc(F)ccc43)cnn2c1-c1cc(F)cc(Cl)c1Cl [Compound A538] ?
Result: 1 to 10 µM

----------
# Tested on: Microfilaria of Dirofilaria immitis
# test_description: Motility of Dirofilaria immitis microfilariae in microtiter plate, 3 days, dose response
# Type: cell-based
# test_parameters: 72 h, read-out: EC50, motility of D. immitis microfilaria, three days at 37° C., 5% CO2, vs DMSO control
Catalogue of compounds with associated EC50

These recorded examples may help you get a feel for the data.
{"compound": "Cc1cc2c(N3CC(C)(F)C3)c(C(=O)N[C@H]3CCOc4ccccc43)cnn2c1-c1cc(F)cc(Cl)c1Cl [Compound A562]", "EC50": "1000 to 10000 nM"}
{"compound": "Cc1cc2c(C(C)(C)C)c(C(=O)N[C@H]3CCOc4ccccc43)cnn2c1N1CCC(F)(F)CC1 [Compound A527]", "EC50": "100 to 1000 nM"}
{"compound": "Cc1cc2c(C(C)C)c(NC(=O)[C@H]3CCOc4ccccc43)cnn2c1-c1cc(Cl)cc(Cl)c1 [Compound A462]", "EC50": "10 to 100 nM"}
{"compound": "CC(C)(C)c1c(C(=O)N[C@H]2CCOc3ccccc32)cnn2c(-c3c(Cl)cc(F)cc3Cl)c(Cl)cc12 [Compound A485]", "EC50": "< 10 nM"}

Task: Could you tell me which EC50 is on file for Cc1cc2c(C(C)(C)C)c(C(=O)N[C@H]3CCc4cccnc43)cnn2c1-c1cc(F)cc(Cl)c1Cl [Compound A544] ?
Result: 10 to 100 nM

Task: Could you tell me which EC50 is on file for Cc1cc2c(C(C)(C)C)c(C(=O)N(C)[C@H]3CCOc4ccccc43)cnn2c1-c1cc(F)cc(Cl)c1Cl [Compound A543] ?
Result: 1000 to 10000 nM

Task: Could you tell me which EC50 is on file for Cc1cc2c(C(C)(C)C)c(C(=O)N[C@H]3CCOc4ncsc43)cnn2c1-c1cc(F)cc(Cl)c1Cl [Compound A551] ?
Result: 10 to 100 nM

Task: Could you tell me which EC50 is on file for Cc1cc2c(C(C)(C)C)c(C(=O)NC3CCCc4sccc43)cnn2c1-c1cc(F)cc(Cl)c1Cl (centres unmarked) [Compound A537] ?
Result: < 10 nM

Task: Could you tell me which EC50 is on file for Cc1cc2c(C(C)C)c(C(=O)NN3CCOc4ccccc43)cnn2c1-c1cc(F)cc(Cl)c1Cl [Compound A498] ?
Result: < 10 nM

Task: Could you tell me which EC50 is on file for Cc1cc2c(C(C)C)c(C(=O)NN3CCOc4ccccc43)cnn2c1-c1cc(Cl)cc(Cl)c1 [Compound A497] ?
Result: 10 to 100 nM

Task: Could you tell me which EC50 is on file for Cc1cc2c(N3CC(F)(F)C3)c(C(=O)N[C@H]3CCOc4ccccc43)cnn2c1-c1cc(F)cc(Cl)c1Cl [Compound A504] ?
Result: < 10 nM

Task: Could you tell me which EC50 is on file for Cc1cc2c(N3CCOCC3)c(C(=O)N[C@H]3CCOc4ccccc43)cnn2c1-c1cc(Cl)cc(Cl)c1Cl [Compound A501] ?
Result: < 10 nM

Task: Could you tell me which EC50 is on file for Cc1cc2c(N3CCOCC3)c(C(=O)N[C@H]3CCOc4ccccc43)cnn2c1-c1cc(Cl)cc(Cl)c1 [Compound A499] ?
Result: < 10 nM

Task: Could you tell me which EC50 is on file for Cc1cc2c(C(C)(C)C)c(C(=O)N[C@H]3CCOc4ccccc43)cnn2c1N1CCOCC1 [Compound A529] ?
Result: 1000 to 10000 nM

----------
# System: Microfilaria of Dirofilaria immitis
# test_description: Motility of Dirofilaria immitis microfilariae in microtiter plate, 3 days, dose response
# Format: cell-based
# test_parameters: 72 h, read-out: EC50, motility of D. immitis microfilaria, three days at 37° C., 5% CO2, vs DMSO control
pEC50: −log10 of the molar value.
Catalogue of compounds with associated pEC50

These recorded examples may help you get a feel for the data.
{"compound": "CC1(F)CN(c2c(C(=O)N[C@H]3CCOc4ccccc43)cnn3c(-c4cc(Cl)cc(Cl)c4Cl)c(Cl)cc23)C1", "pEC50": "6.00 to 7.00"}
{"compound": "Cc1cc2c(N3CCOCC3)c(C(=O)N[C@H]3CCOc4ccccc43)cnn2c1-c1cc(F)cc(Cl)c1Cl", "pEC50": "> 8.00"}
{"compound": "Cc1cc2c(C(C)(C)C)c(C(=O)N[C@H]3CCOc4ccc(F)cc43)cnn2c1-c1cc(F)cc(Cl)c1Cl", "pEC50": "> 8.00"}

Task: Could you tell me which pEC50 is on file for "CC(C)(C)c1c(C(=O)N[C@H]2CCOc3ccccc32)cnn2c(-c3c(F)cc(F)cc3F)c(Cl)cc12" ?
Result: > 8.00

Task: Could you tell me which pEC50 is on file for "Cc1cc2c(N3CC(C)(C)C3)c(C(=O)N[C@H]3CCOc4ccccc43)cnn2c1-c1cc(F)cc(Cl)c1Cl" ?
Result: 5.00 to 6.00

----------
Catalogue of molecules with associated EC50
# Test system: Microfilaria of Dirofilaria immitis
# test_description: Motility of Dirofilaria immitis microfilariae in microtiter plate, 3 days, dose response
# Format: cell-based
# test_parameters: 72 h, read-out: EC50, motility of D. immitis microfilaria, three days at 37° C., 5% CO2, vs DMSO control

These recorded examples may help you get a feel for the data.
{"molecule": "CC(C)c1c(C(=O)N[C@H]2CCOc3ccccc32)cnn2c(-c3cc(Cl)cc(Cl)c3)cc(Cl)c12 [Compound A467]", "readout_type": "EC50", "reading": "100 to 1000 nM"}
{"molecule": "Cc1cc2c(C(C)(C)C)c(C(=O)N[C@H]3CCOc4ccncc43)cnn2c1-c1cc(F)cc(Cl)c1Cl [Compound A569]", "readout_type": "EC50", "reading": "< 10 nM"}
{"molecule": "Cc1cc2c(C(C)(C)C)c(C(=O)N[C@H]3CCc4scnc43)cnn2c1-c1cc(F)cc(Cl)c1Cl [Compound A540]", "readout_type": "EC50", "reading": "< 10 nM"}
{"molecule": "CC(C)c1c(C(=S)N[C@H]2CCOc3ccccc32)cnn2c(-c3cc(F)cc(Cl)c3Cl)c(Cl)cc12 [Compound A539]", "readout_type": "EC50", "reading": "10 to 100 nM"}
{"molecule": "CN(C)c1c(C(=O)N[C@H]2CCOc3ccccc32)cnn2c(-c3cc(F)cc(F)c3F)c(Cl)cc12 [Compound A474]", "readout_type": "EC50", "reading": "< 10 nM"}

Task: Query the reported EC50 for Microfilaria of Dirofilaria immitis; item: Cc1cc2c(C(C)(C)C)c(C(=O)N[C@H]3CCc4sc(Br)nc43)cnn2c1-c1cc(F)cc(Cl)c1Cl [Compound A536a]
Result: < 10 nM

Task: Query the reported EC50 for Microfilaria of Dirofilaria immitis; item: CC(C)(C)c1c(C(=O)N[C@H]2CCOc3ccccc32)cnn2c(-c3cc(Cl)cc(Cl)c3Cl)c(Cl)cc12 [Compound A522]
Result: < 10 nM

Task: Query the reported EC50 for Microfilaria of Dirofilaria immitis; item: CC(C)(C)c1c(C(=O)N[C@H]2CCOc3ccccc32)cnn2c(-c3cc(Cl)cc(Cl)c3)c(C(F)(F)F)cc12 [Compound A483]
Result: 10 to 100 nM

Task: Query the reported EC50 for Microfilaria of Dirofilaria immitis; item: CN(C)c1c(C(=O)N[C@H]2CCOc3ccccc32)cnn2c(-c3cc(Cl)cc(Cl)c3)c(Cl)cc12 [Compound A475]
Result: 100 to 1000 nM

Task: Query the reported EC50 for Microfilaria of Dirofilaria immitis; item: CC(C)c1c(C(=O)N[C@H]2CCOc3ccccc32)cnn2c(-c3cc(Cl)cc(Cl)c3)c(F)cc12 [Compound A466]
Result: 10 to 100 nM

Task: Query the reported EC50 for Microfilaria of Dirofilaria immitis; item: Cc1cc2c(C(C)(C)C)c(C(=O)N[C@H]3CCOc4ccccc43)cnn2c1N1CCCCC1 [Compound A524]
Result: 100 to 1000 nM

Task: Query the reported EC50 for Microfilaria of Dirofilaria immitis; item: Cc1cc(-c2cc(Cl)cc(Cl)c2)n2ncc(C(=O)N[C@H]3CCOc4ccccc43)c(C(C)C)c12 [Compound A469]
Result: 10 to 100 nM

Task: Query the reported EC50 for Microfilaria of Dirofilaria immitis; item: Cc1cc2c(C(C)(C)C)c(C(=O)N[C@H]3CC(C)(C)Oc4ccccc43)cnn2c1-c1cc(F)cc(Cl)c1Cl [Compound A547]
Result: 1000 to 10000 nM

Task: Query the reported EC50 for Microfilaria of Dirofilaria immitis; item: CC(C)(C)c1c(C(=O)NN2CCOc3ccccc32)cnn2c(-c3cc(Cl)cc(Cl)c3)c(Cl)cc12 [Compound A516]
Result: < 10 nM

Task: Query the reported EC50 for Microfilaria of Dirofilaria immitis; item: Cc1cc2c(C(C)(C)C)c(C(=O)N[C@H]3CCn4cncc43)cnn2c1-c1cc(F)cc(Cl)c1Cl [Compound A552]
Result: 1000 to 10000 nM

Task: Query the reported EC50 for Microfilaria of Dirofilaria immitis; item: Cc1cc2c(C(C)(C)C)c(C(=O)N[C@H]3CCOc4scnc43)cnn2c1-c1cc(F)cc(Cl)c1Cl [Compound A550]
Result: 10 to 100 nM

Task: Query the reported EC50 for Microfilaria of Dirofilaria immitis; item: CC(C)c1c(C(=O)N[C@H]2CCOc3ccccc32)cnn2c(-c3cc(Cl)cc(Cl)c3)ccc12 [Compound A470]
Result: 1000 to 10000 nM

Task: Query the reported EC50 for Microfilaria of Dirofilaria immitis; item: CC(C)c1c(C(=O)NN2CCOc3ccccc32)cnn2c(-c3cc(F)cc(Cl)c3Cl)c(Cl)cc12 [Compound A496]
Result: < 10 nM

Task: Query the reported EC50 for Microfilaria of Dirofilaria immitis; item: Cc1cc2c(C(C)(C)C)c(C(=O)N[C@H]3CCc4ccccc43)cnn2c1-c1cc(F)cc(Cl)c1Cl [Compound A558]
Result: < 10 nM

Task: Query the reported EC50 for Microfilaria of Dirofilaria immitis; item: Cc1cc2c(N3CC(C)(C)C3)c(C(=O)N[C@H]3CCOc4ccccc43)cnn2c1-c1cc(Cl)cc(Cl)c1Cl [Compound A563]
Result: 1000 to 10000 nM

Task: Query the reported EC50 for Microfilaria of Dirofilaria immitis; item: Cc1cc2c(N(C)C)c(C(=O)N[C@H]3CCOc4ccccc43)cnn2c1-c1cc(F)cc(Cl)c1Cl [Compound A493]
Result: < 10 nM
